testSystem: Fuc(a1-3)[Gal(b1-4)]GlcNAc(b1-6)GalNAc
assayExplanation: glycan array binding signal (z-score within array); higher = stronger binding
protocolConditions: glycan notation: IUPAC condensed, linker removed
About 410 targets per protein were measured; listed, in parts, are those with the strongest signals and a random draw of the rest.
metricName: glycan array binding signal (z-score)

>>> readoutnumber("CD34 (Homo sapiens), P28906 (protein) MGSSHHHHHHSSGLVPRGSHMSTSLATSPTKPYTSSSPILSDIKAEIKCSGIREVKLTQGICLEQNKTSSCAEFKKDRGEGLARVLCGEEQADADAGAQVCSLLLAQSEVRPQCLLLVLANRTEISSKLQLMKKHQSDLKKLGILDFTEQDVASHQSYSQKT")
-0.245
>>> readoutnumber("LecRKVI.2 (protein) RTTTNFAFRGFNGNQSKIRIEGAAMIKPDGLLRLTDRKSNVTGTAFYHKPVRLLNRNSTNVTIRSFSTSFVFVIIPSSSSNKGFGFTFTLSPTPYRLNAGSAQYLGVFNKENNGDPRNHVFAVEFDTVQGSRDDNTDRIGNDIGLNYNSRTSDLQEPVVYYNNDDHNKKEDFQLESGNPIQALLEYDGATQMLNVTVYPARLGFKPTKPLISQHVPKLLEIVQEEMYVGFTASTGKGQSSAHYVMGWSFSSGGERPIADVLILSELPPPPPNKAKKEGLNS")
3.86
>>> readoutnumber("CFEM-SCL (Saccharomyces cerevisiae), O13547 (protein) MRATTLLSSVVSLALLSKEVLATPPACLLACVAQVGKSSSTCDSLNQVTCYCEHENSAVKKCLDSICPNNDADAAYSAFKSSCSEQNASLGD")
2.59
